Target: T1, recombinant human ROR2-extracellular domain (ROR2-ECD) (human, UniProt Q01974 34-403)
T1 construct: also called recombinant ROR2-extracellular protein; recombinant ROR2 protein
T1 sequence (Q01974 34-403 limits assumed): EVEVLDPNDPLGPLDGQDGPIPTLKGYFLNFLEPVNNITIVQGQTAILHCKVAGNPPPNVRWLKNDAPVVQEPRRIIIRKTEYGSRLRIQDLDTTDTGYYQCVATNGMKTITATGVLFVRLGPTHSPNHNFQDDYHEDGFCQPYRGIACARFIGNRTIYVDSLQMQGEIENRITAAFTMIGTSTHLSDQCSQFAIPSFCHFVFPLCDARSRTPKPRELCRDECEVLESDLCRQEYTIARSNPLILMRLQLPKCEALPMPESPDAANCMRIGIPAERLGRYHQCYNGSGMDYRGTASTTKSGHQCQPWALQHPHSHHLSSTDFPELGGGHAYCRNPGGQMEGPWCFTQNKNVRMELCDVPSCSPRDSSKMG
Experiment: kinetic exclusion assay (KinExA), soluble recombinant ROR2
test readout: Kd

Examples from the recorded data:
binder	Kd
5C11 anti-human ROR2 monoclonal antibody (antibody, IgG1, V domains shown, also called 5C11 mAb) VH: EVQLVESGGDLVKPGGSLKLSCAASGFTFSNYGMSWVRQTPDKRLEWVATISSGGGSTYYPDSVKGRFTISRDNAKNSLYLQMSSLKSEDTAMYYCARHPYDYGYYFDYWGQGTTLTVSS VL: DILLTQSPDILSVSPGERVSFSCRASQSIGTSIHWYQQRTNGSPRLLIKYASESISGIPSRFSGSGSGTDFTLSINSVESEDIADYYCQQSDSWPFPFGSGTKLEKK	> 40 nM
6E6 anti-human ROR2 monoclonal antibody (antibody, IgG1, V domains shown, Used conjugated with Alexa647 in flow cytometry and with pHrodo in the internalisation assay; also called 6E6 mAb) VH: EVQLVESGGDLVKPGGSLKLSCAASGFTFSNYGMSWVRQTPDKRLEWVATISSGGGYTHYVDSVKGRFTISRDNANHILYLQMSSLNSEDTAMYYCARHPRDFSYAMDYWGQGTSVTVSS VL: DIVMTQSHKFMSTSIGDRVSITCKASQDVGHYVAWYQQKPGQSPKLLIYWASTRHTGVPDRFTGSGSGTDFTLTISNVQSEDLADYFCQQYNIYPWTFGGGSKLAIK	< 0.1 nM
4G9 anti-human ROR2 monoclonal antibody (antibody, IgG2a, V domains shown, Used conjugated with Alexa647 in flow cytometry and with pHrodo in the internalisation assay; also called 4G9 mAb) VH: QVQLQQSGAELVRPGASVKLSCKALGYTFTDYEMHWVKQTPVHGLEWIGAIHPGSGGTAYNQKFKGKATLTADKSSSTAYMELSRLTSEDSAVYYCTRRRPRFYGMDYWGQGTSVTVSS VL: DIVMTQAAPSVPVTPGESVSISCRSSKSLLHSNGNTYLYWFLQRPGQSPQLLIYRMSNLASGVPDRFSGSGSGTAFTLRISRVEAEDVGVYYCMQHLEYPLTVGAGTKLELK	~1.9 nM

Measured Kd, 5G3 anti-human ROR2 monoclonal antibody (antibody, IgG2a, V domains shown, also called 5G3 mAb) VH: EVQLVESGGGLVQPKGSLKLSCAASGFTFNTYAMNWVRQAPGKGLEWVARIRSKSNNYATYYADSVKDRFTISRDDSQSMLHLQMNNLKTEDTAMYYCVRHGSSLYYAMDYWGQGTSVTVSS VL: DIQMTQSPSSLSASLGERVSLTCRASQEISGYLGWLQQKPDGTIKRLIYAASTLDSGVPKRFSGSRSGSAYSLTISSLESEDFADYYCLQYASYPYTFGGGTKLEIK : > 40 nM
